Taken from PubChem BioAssay.

nuclei count values, listed per item
experiment: reduction of polyQ htt aggregates in cells – imaging, exon1htt(103Q)mCFP cells, high-content imaging, primary screen (AID 483); conditions: exon1htt(103Q)mCFP cell line, aggregate imaging, at 2 µM; measured here: cell count, toxicity;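 also: compound exposure lasted 3 days before fixation; percent of the per-plate median nuclei count of sample wells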
Provide only the numeric value, understood in %.

# compound, measured quantity, recorded value
measured = [
    ("Cc1noc(C)c1COc1cccc(C(=O)Oc2ccc3c(c2)OCO3)c1", "nuclei count", 80.2),
]

*Q* Return the recorded nuclei count value; entry: `CC(=O)SCC(=O)N=c1sc2cc(F)ccc2n1C`
*A* 91.7

*Q* Return the recorded nuclei count value; entry: `COc1ccccc1CNS(=O)(=O)c1cccc(S(=O)(=O)N2CCOCC2)c1`
*A* 116
